FYI, the data here is from PubChem BioAssay (NCI).

- assayComment: NCI Yeast Anticancer Drug Screen. Data for the bub3 strain (AID 167)
- conditionDescription: S. cerevisiae bub3 mutant strain, at 50.0 µM, active compounds read high
The panel holds about 79,000 compounds, 15% with a hit somewhere; the sample as a whole holds those more often. Where a SMILES comes first, the peptide text is derived from it. The star is where a group is joined. Cbz = O=C(OCc1ccccc1)*
Listed molecules paired with reported growth inhibition
Express it in %; write the number only.

- molecule: "Cc1c([O-])[n+]2cccc3ccn(c1=O)c32"
  recordedNumber: -2.4
- molecule: "CSCCC(NC(=O)C(Cc1ccccc1)NC(=O)OCc1ccccc1)C(=O)O (stereo not drawn) (Cbz-Phe-Met-OH; configuration not given here)"
  recordedNumber: -4.95
- molecule: "CCCC#CCN(CCCC)CCCC"
  recordedNumber: 58
- molecule: "Cn1cnnc1Sc1c([N+](=O)[O-])nc(-c2ccc([N+](=O)[O-])cc2)n1C"
  recordedNumber: 11.6

[ask] Can you share its growth inhibition? I mean this molecule: CN(C)C12CCCCCC1S(=O)(=O)C2 (stereo not drawn)
[reply] -22.4

[ask] Can you share its growth inhibition? I mean this molecule: CCOc1ccc(C(=O)C=O)cc1
[reply] 9.55

[ask] Can you share its growth inhibition? I mean this molecule: C=C(CN(CC)CC)C1(c2ccccc2)CC2(CCCC2)C(=O)O1 (stereo not drawn)
[reply] 10.2

[ask] Can you share its growth inhibition? I mean this molecule: O=C(OCC1OC(OC(=O)c2ccccc2)C(O)C1OC(=O)c1ccccc1)c1ccccc1 (stereo not drawn)
[reply] 35.7

###

- assayComment: NCI Yeast Anticancer Drug Screen. Data for the bub3 strain (AID 167)
- conditionDescription: S. cerevisiae bub3 mutant strain, at 50.0 µM, active compounds read high
This is part of a sample that, as a whole, favours compounds with a hit. Of some 79,000 tested, about 15% had one in any assay.
property: growth inhibition (%)
Express it in %; write the number only.

- molecule: "Cc1c([N+](=O)[O-])cc(C(C)(C)C)c(OC(=O)Nc2ccc(Cl)cc2)c1[N+](=O)[O-]"
  property: "growth inhibition"
  recordedNumber: 27.6

[ask] Can you share its growth inhibition? I mean this molecule: CN(C)CCCN1CCc2c([nH]c3ccccc23)C1c1cccnc1 (stereo not drawn)
[reply] -6.2

[ask] Can you share its growth inhibition? I mean this molecule: O=C1c2ccccc2C(=O)N1CC(O)COc1cccc2ccccc12 (stereo not drawn)
[reply] 8.3

[ask] Can you share its growth inhibition? I mean this molecule: O=c1[nH]c(=O)n(C2CC3OCC3O2)cc1F (stereo not drawn)
[reply] -13.5

[ask] Can you share its growth inhibition? I mean this molecule: CC(C)CCC[C@@H](C)[C@H]1CC[C@H]2[C@@H]3CC[C@H]4N(C)[C@@H](Cc5ccccc5)CC[C@]4(C)[C@H]3CC[C@]12C
[reply] 15.4

[ask] Can you share its growth inhibition? I mean this molecule: CCN(CC)CCCNc1c2ccccc2nc2ccccc12
[reply] -8.1

###

Listed molecules paired with reported growth inhibition
- assayComment: NCI Yeast Anticancer Drug Screen. Data for the mec2-1 strain (AID 157)
- conditionDescription: S. cerevisiae mec2-1 strain, at 50.0 µM, active compounds read high
- Procedure: Growth inhibition of yeast strains with defined genetic alterations is measured as a screen for potential anti-cancer activity. Selected strains with alterations in DNA damage repair or cell cycle control were exposed to compounds and growth inhibition was measured relative to vehicle treated controls. The strain used in this assay is mec2-1
The panel holds about 79,000 compounds, 15% with a hit somewhere; the sample as a whole holds those more often.
Express it in %; write the number only.

- molecule: "CC(=O)c1c2c(cc3c1CCC3)CCC2"
  growth inhibition / %: -47.2
- molecule: "CCN(CC)CCC(=O)c1cnc(-c2ccccc2)nc1C"
  growth inhibition / %: 35.1
- molecule: "COc1ccc(/C=N/N2CN(C(CC(N)=O)C(=O)O)P(Nc3ncccn3)N=C2N)cc1OC (stereo not drawn)"
  growth inhibition / %: -3.9
- molecule: "CC(=O)Nc1nc(C)c(S(=O)(=O)Cl)s1"
  growth inhibition / %: 10.4
- molecule: "CC(=O)Nc1cc2c(cc1Cl)-c1ccc(Br)cc1C2"
  growth inhibition / %: -12.8
- molecule: "O=C1CSC(c2ccc([N+](=O)[O-])cc2)N1c1nncs1 (stereo not drawn)"
  growth inhibition / %: -6.8
- molecule: "CC1=Cc2cc3[n-]c(cc4nc(cc5[n-]c(cc1n2)c(C)c5CCC(=O)O)C(CCC(=O)O)=C4C)cc3C.[Cu+2]"
  growth inhibition / %: -0.9
- molecule: "Cc1cc(N(CCC#N)CCC#N)ccc1N=Nc1cc(Cl)ccc1Cl"
  growth inhibition / %: 16.8

[ask] Can you share its growth inhibition? I mean this molecule: CC1COC(C(=O)O)(c2ccccc2)O1 (stereo not drawn)
[reply] -3.55

[ask] Can you share its growth inhibition? I mean this molecule: CCOC(=O)C1C(=O)CC(C)(O)C(C(=O)OCC)C1c1ccc(N(C)C)cc1 (stereo not drawn)
[reply] -15.7
